Target: hMC4-R (Homo sapiens)
Construct: expressed in transfected cells; host or cells: CHO-K1
Sequence (P32245 whole entry): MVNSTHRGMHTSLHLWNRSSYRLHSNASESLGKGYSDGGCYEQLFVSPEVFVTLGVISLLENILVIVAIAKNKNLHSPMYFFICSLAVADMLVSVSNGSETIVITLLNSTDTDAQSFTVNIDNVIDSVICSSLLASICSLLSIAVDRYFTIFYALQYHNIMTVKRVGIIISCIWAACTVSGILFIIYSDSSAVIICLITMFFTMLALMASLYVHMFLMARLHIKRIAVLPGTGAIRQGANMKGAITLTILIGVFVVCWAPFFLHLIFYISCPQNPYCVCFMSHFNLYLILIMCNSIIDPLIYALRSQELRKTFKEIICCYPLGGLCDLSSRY
Test: Radioligand binding assay, hMC4-R
Protocol: Cellular membranes used for the in vitro receptor binding assays were obtained from transgenic CHO-K1 cells stably expressing hMC-R receptor subtypes 1, 3, 4 or 5. […] Filters were washed three times with 50 mM Tris-HCl at p-H 7.4 at a temperature of approximately 0-4° C. and then assayed for radioactivity using a Packard Topcount® scintillation counter. Binding data were analyzed by computer-assisted non-linear regression analysis (XL fit; IDBS).
PARAMETER: pKi
# pKi: negative log10 of molar concentration; output just the value

Enquiry: Given the molecule CCCC[C@H](NC(C)=O)C(=O)N[C@H]1CSSC[C@@H](C(=O)NCCC(=O)N[C@@H](CCCNC(=N)N)C(=O)N[C@@H](CCCNC(=N)N)C(=O)N[C@@H](CCCCN)C(=O)N[C@@H](CCCNC(=N)N)C(=O)N[C@@H](CCCNC(=N)N)C(=O)N[C@@H](CCC(N)=O)C(=O)N[C@@H](CCCNC(=N)N)C(=O)N[C@@H](CCCNC(=N)N)C(=O)N[C@@H](CCCNC(=N)N)C(N)=O)NC(=O)[C@H](Cc2c[nH]c3ccccc23)NC(=O)[C@H](CCCNC(=N)N)NC(=O)[C@@H](Cc2ccccc2)NC(=O)[C@H](Cc2c[nH]cn2)NC(=O)[C@@H](C)NC1=O , what is its reported pKi?
Return: 9.32
